# phosphorylation enrichment values compiled below
- TARGET: MERTK (UniProt Q12866)
- Sequence (Q12866 whole entry, looked up): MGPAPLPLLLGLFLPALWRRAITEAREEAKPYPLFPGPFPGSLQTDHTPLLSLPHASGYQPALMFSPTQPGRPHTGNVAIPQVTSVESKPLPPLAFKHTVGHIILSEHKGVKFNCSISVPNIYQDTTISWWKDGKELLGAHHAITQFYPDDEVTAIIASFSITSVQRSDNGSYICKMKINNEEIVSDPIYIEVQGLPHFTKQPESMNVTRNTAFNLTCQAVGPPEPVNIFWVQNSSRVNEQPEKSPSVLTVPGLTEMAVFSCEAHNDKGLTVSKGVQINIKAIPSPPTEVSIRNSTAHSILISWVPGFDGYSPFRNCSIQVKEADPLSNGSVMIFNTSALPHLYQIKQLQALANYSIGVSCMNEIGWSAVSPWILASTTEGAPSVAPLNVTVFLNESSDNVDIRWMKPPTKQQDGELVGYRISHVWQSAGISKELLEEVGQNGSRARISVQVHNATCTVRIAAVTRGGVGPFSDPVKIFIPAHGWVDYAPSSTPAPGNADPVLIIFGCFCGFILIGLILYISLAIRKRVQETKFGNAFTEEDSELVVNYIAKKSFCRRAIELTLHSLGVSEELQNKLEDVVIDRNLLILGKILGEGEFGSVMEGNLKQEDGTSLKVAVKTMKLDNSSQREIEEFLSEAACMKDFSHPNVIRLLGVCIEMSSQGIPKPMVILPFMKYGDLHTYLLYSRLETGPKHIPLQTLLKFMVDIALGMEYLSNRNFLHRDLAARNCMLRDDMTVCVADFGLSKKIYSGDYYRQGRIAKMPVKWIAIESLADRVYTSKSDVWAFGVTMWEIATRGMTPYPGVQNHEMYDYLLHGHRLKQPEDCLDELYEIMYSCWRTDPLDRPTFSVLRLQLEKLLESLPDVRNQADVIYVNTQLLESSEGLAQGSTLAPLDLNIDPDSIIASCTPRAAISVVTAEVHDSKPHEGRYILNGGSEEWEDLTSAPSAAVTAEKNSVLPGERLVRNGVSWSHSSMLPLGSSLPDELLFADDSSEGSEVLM
- ASSAY NAME: phosphorylation enrichment, bacterial display (enrichment ratio); higher = better substrate or ligand; peptides without Tyr show the background
Give only the figure.

Worked cases, phosphorylation enrichment given:
Per the records, this sequence ( CSPLLYRVIMS [OR8D4_Y132] ) has phosphorylation enrichment equal to 0.507

Per the records, this sequence ( PQIVKYRPDCI [LDHB_Y128_S129R] ) has phosphorylation enrichment equal to 0.133

Continuing:
Per the records, this sequence ( QNRELYSEGLG [CNKSR1_Y665] ) has phosphorylation enrichment equal to 0.443

Per the records, this sequence ( FSEVRYVKEPY [HIPK4_Y170] ) has phosphorylation enrichment equal to 0.371

Per the records, this sequence ( VIIVLYFSLWK [SLC6A2_Y249_V245I] ) has phosphorylation enrichment equal to 0.354

Per the records, this sequence ( ERLWDCGMSSS [F8_Y1728_Y1728C] ) has phosphorylation enrichment equal to 0.387

Per the records, this sequence ( ASMAKYYASEI [ACADSB_Y372] ) has phosphorylation enrichment equal to 0.731

Per the records, this sequence ( GDDLSYGDVPP [IRS1_Y151_E147D] ) has phosphorylation enrichment equal to 0.413

Per the records, this sequence ( LHAAAYRNALA [UQCRC2_Y182] ) has phosphorylation enrichment equal to 0.407

Per the records, this sequence ( EQRRAYLEGTC [HLA-C_Y183_L180R] ) has phosphorylation enrichment equal to 0.47

Per the records, this sequence ( PGQRVYVVAER [SHH_Y316] ) has phosphorylation enrichment equal to 0.447

Per the records, this sequence ( LQLLGHRPVFS [CHST6_Y358_Y358H_YF] ) has phosphorylation enrichment equal to 0.602

====

- System: AncSZ
- ASSAY NAME: phosphorylation enrichment, bacterial display (enrichment ratio); higher = better substrate or ligand; peptides without Tyr show the background
Classify as follows. Reported phosphorylation enrichment greater than or equal to 0.9: y. Reported phosphorylation enrichment below: n.

Q) Has TRYDEYLEVTK [MAP1A_Y2217_H2214Y] a recorded phosphorylation enrichment greater than or equal to 0.9?
A) y

Q) Has SRGRQYQELPR [KCNH2_Y1009] a recorded phosphorylation enrichment greater than or equal to 0.9?
A) n

Continuing:
Q) Has TTEHIYGDKFF [UBA7_Y524_N527K] a recorded phosphorylation enrichment greater than or equal to 0.9?
A) n

Q) Has MSRNLYSGDYY [DDR2_Y736] a recorded phosphorylation enrichment greater than or equal to 0.9?
A) y

Q) Has TLNHQYDFTFH [CSNK1A1_Y292_D297H_YF] a recorded phosphorylation enrichment greater than or equal to 0.9?
A) y

Q) Has PVKTPYSLKRW [BMPR2_Y979_R974P] a recorded phosphorylation enrichment greater than or equal to 0.9?
A) y

====

- TARGET: Grb2 SH2 (UniProt P62993)
- Sequence (P62993 whole entry, looked up): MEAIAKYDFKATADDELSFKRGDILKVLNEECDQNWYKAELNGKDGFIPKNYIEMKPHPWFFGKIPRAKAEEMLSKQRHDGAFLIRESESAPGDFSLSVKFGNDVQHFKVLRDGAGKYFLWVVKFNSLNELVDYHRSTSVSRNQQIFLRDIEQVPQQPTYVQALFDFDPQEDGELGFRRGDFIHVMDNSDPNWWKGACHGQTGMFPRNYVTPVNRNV
- ASSAY NAME: SH2 binding enrichment of the phosphorylated peptide, bacterial display (enrichment ratio); higher = better substrate or ligand; peptides without Tyr show the background
# SH2 binding enrichment values compiled below

Readout SH2 binding enrichment for NKEAICSGYIR [SMCHD1_Y283_Y283C] , test system Grb2 SH2 (UniProt P62993), was 0.761

Continuing:
Readout SH2 binding enrichment for MLEVPYVDRNS [F10_Y384] , test system Grb2 SH2 (UniProt P62993), was 0.724

Readout SH2 binding enrichment for YLENYYDLKKD [MMP3_Y42] , test system Grb2 SH2 (UniProt P62993), was 0.904

Readout SH2 binding enrichment for FGLDHYQCDCT [PTGS1_Y54_R53H] , test system Grb2 SH2 (UniProt P62993), was 1.13

Readout SH2 binding enrichment for ILGRFYETSSI [PAX2_Y73_G76S_YF] , test system Grb2 SH2 (UniProt P62993), was 0.85

Readout SH2 binding enrichment for RRIHSNRGHLW [VHL_Y112_Y112N] , test system Grb2 SH2 (UniProt P62993), was 0.923

Readout SH2 binding enrichment for ALPGEYIPTVF [RAC1_Y32_F28L] , test system Grb2 SH2 (UniProt P62993), was 0.697

Readout SH2 binding enrichment for GYSRHCEDGYP [CTNND1_Y217_Y217C] , test system Grb2 SH2 (UniProt P62993), was 0.796

Readout SH2 binding enrichment for SHLLRYLSWTV [CLCNKB_Y93] , test system Grb2 SH2 (UniProt P62993), was 0.9
